target: Endothelial PAS domain-containing protein 1 (Homo sapiens) (UniProt Q99814); experiment: HIF-1a and HIF-2a reporter inhibitors, SAR follow-up, cell-based, luminescence, MIAPaCa-2, 786-0, panel (AID 652011); details: MIAPaCa-2/PANC HIF reporter, luciferase luminescence, desferoxamine, overnight, HIF2a PANC, run 1; at 99 µM (top of the series)
Sequence (Q99814 whole entry, looked up, the tested form may be a part): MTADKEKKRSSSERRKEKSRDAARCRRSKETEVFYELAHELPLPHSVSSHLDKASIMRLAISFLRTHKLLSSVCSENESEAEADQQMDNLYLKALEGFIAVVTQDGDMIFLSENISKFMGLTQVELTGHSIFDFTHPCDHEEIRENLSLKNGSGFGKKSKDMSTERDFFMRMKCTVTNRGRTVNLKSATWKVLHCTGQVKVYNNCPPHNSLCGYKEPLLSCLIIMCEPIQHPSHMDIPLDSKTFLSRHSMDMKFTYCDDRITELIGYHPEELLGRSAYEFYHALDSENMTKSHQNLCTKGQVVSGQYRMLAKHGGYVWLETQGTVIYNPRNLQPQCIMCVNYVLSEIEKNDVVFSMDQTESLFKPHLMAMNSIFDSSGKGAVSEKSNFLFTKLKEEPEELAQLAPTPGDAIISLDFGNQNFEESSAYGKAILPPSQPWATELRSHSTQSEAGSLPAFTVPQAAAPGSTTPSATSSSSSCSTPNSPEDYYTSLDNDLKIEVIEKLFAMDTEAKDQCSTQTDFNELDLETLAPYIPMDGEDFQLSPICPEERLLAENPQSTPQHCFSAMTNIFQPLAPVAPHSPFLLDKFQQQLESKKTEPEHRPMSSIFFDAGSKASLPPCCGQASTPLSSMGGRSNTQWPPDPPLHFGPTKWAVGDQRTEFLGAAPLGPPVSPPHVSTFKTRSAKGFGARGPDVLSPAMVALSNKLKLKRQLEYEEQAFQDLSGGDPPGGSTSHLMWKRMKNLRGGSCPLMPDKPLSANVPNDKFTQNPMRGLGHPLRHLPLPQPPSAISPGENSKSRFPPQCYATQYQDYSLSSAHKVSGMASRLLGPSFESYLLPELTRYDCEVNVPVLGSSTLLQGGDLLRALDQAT
ATTRIBUTE MEASURED: inhibition (%)
Give the value in % but do not write % after it.

Entry "CC(C)(C)c1ccc(-c2noc(CCC(=O)N3CCOCC3)n2)cc1" : reported inhibition = ?
-33.9

What do we get for "O=C(O)CCc1nc(-c2ccccc2)no1" ?
25.2

What do we get for "CCNC(=O)CCc1nc(-c2ccc(CC)cc2)no1" ?
-29.7

What do we get for "CC(C)(C)c1ccc(-c2noc(CCC(=O)Nc3cccc([N+](=O)[O-])c3)n2)cc1" ?
89.8

What do we get for "COc1cccc(NC(=O)CCc2nc(-c3ccc(C(C)(C)C)cc3)no2)c1" ?
118

What do we get for CCC(C)NC(=O)CCc1nc(-c2ccc(C(C)C)cc2)no1 (configuration not stated) ?
12.1

What do we get for "CC(C)CNC(=O)CCc1nc(-c2ccc(C(C)(C)C)cc2)no1" ?
63.8
